Assay: refractive index (Na D-line) (dimensionless); wn = mass fraction of the nth substance listed
Recorded Conditions: 328.15 K; 101 kPa; Liquid; Standard Abbe refractometry; w1 = 0.25
Reported values of refractive index for individual entries
Result Type: refractive index

INSERT INTO assay_data (molecule, numeric_readout) VALUES
  ('CC(O)CN(CC(C)O)CC(C)O (centres undefined) [triisopropanolamine] + O', 1.36417),
  ('OCCNCCO [diethanolamine] + O', 1.36453),
  ('CC(O)CN (centres undefined) [1-amino-2-propanol] + O', 1.35985),
  ('CC(O)CNCC(C)O (centres undefined) [N-(2-hydroxypropyl)-2-hydroxy-1-propanamine] + O', 1.36294);

Recorded values, source the NIST ThermoML archive (doi:10.1021/je300938w).
